Assay target: MSLN抗原 (Mesothelin, MSLN-Biotin) (human) (UniProt Q13421)
Assay details: BLI (Octet RED96), MSLN-Biotin on AR2G sensor, TG1 periplasmic scFv as analyte
koff values for the binders below.
State the answer as a number, implicitly in s⁻¹.

8C9 (scFv, V domains shown) VH: QVQLQQPGAELVKPGASMKLSCKASGYTFTSYWMHWVKQRPGQGLEWIGMIHPNSDNTIYYEKFKSKATLTVDKSSSTAYMQLSSLTSEDSAVYYCAIIITPVVPKFDYWGQGTTLTVSS VL: DIVMTQSHQFMSTSVGDRVSVTCMASHDVGTSVAWYQQKPGQSPKLLIYWASTRHTGVPDRFTGSGSGTDFTLTISNVQSEDLADYFCQQYSSYPLTFGAGTKLELK | 0.000356
4C11 (scFv, V domains shown) VH: QVQLQQPGAELVKPGASMKLSCKASGYTFTSYWMHWVKQRPGQGLEWIGMIHLNSAQTIYYEKFKSKATLTVDKSSSTAYMQLSSLTSEDSAVYYCAIIITPVVPKFDYWGQGTTLTVSS VL: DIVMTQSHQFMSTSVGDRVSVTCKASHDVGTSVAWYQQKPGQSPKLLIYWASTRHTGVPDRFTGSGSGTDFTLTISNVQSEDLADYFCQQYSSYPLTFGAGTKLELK | 0.000133

Next binder, koff to be filled in.
Value lookup for koff; key = 7E10 (scFv, V domains shown) VH: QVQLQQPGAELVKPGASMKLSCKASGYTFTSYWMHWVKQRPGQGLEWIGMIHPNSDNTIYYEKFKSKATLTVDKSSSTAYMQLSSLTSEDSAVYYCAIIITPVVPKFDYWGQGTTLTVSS VL: DIVMTQSHQFMSTSVGDRVSVTCKASHDVGTSVAWYQQKPGQSPKLLIYNASSRGGGVPDRFTGSGSGTDFTLTISNVQSEDLADYFCQQYSSYPLTFGAGTKLELK 0.000401
